Tested on: OVCAR-3
test-method-notes: NCI tumour cell line growth inhibition, 48 h
Active and inactive are the calls of the source. Rule as the data show it: active = GI50 up to about 1.1 µM and inactive = higher.
Labels: class 1 (active), class 0 (inactive)

>>> df
                                   molecule  category_label
0   CC(C)N1CC2CC(CN(C(=O)c3ccc(Cl)cc3)C2)C1         class 0
1  CC(C)(Cl)C(Br)CC/C(=C/CBr)CBr.CC(C)(Cl)C(Br)CC/C(=C\CBr)CBr (stereo not given)         class 0
2  COc1cc2c(cc1O)-c1c(OC)c(O)cc3c1C(C2)N(C)CC3 (stereo not given)         class 0
3  O=C1c2cc([N+](=O)[O-])sc2C(=O)c2c([N+](=O)[O-])csc21         class 1
4  O=Cc1c2c(cc3c1CC1(C3)Cc3cc4c(c(C=O)c3C1)CCC4)CCC2         class 0
5  O=C(N/C(=C\c1ccc(Cl)cc1)c1nc2ccccc2[nH]1)c1ccccc1         class 0
6  C1=N\CCNCCNCC/N=C\c2ccc(cc2)OCc2cccc(n2)COc2ccc/1cc2         class 0
7  COC(=O)[C@@H](Cc1ccccc1)NNC(=O)OC(C)(C)C         class 0
8  C[C@H]1S[C@@H](c2ccc(Cl)cc2Cl)N(NC(=O)c2ccncc2)C1=O         class 0
9  CC(C)C1=CC23CCC4C(C)(C(=O)O)CCCC4(C)C2CC1C(C(=O)O)C3C(=O)O (stereo not given)         class 0

Hey, just so you know, these numbers are from ChEMBL document CHEMBL1201862.
